Test system: TNFα released by PBMCs
Assay overview: Inhibition of TNFα release from monocytes (PBMC) stimulated by LPS, ELISA
Type: cell-based
Applied conditions: Homo sapiens, test concentration 100 μM, LPS 0.1 μg/mL, 20 hr incubation, read-out: Degree of inhibition (%)
# inhibition at 100 µM listing for each entry below
Expressed in %, but write only the number.

Asked: Field: inhibition at 100 µM (TNFα released by PBMCs). Entry: O=C1CCC(N2C(=O)c3ccccc3C2=O)C(=O)N1 (stereo not drawn) [Thalidomide, reference compound]
Given back: 22

Asked: Thanks! And O=C1CCC(N2C(=O)c3csc([N+](=O)[O-])c3C2=O)C(=O)N1 (stereo not drawn) ?
Given back: 28

Asked: Check COC(=O)CN1C(=O)CCC(N2C(=O)c3cscc3C2=O)C1=O (stereo not drawn) too.
Given back: 18

Asked: Let us now turn to CN1C(=O)CCC(N2C(=O)c3cscc3C2=O)C1=O (stereo not drawn)
Given back: 20

Asked: Same for O=C1CCC(N2C(=O)c3cscc3C2=O)C(=O)N1 (stereo not drawn)
Given back: 32

Consider the additional molecule presented here.
Asked: Short answer please: inhibition at 100 µM, TNFα released by PBMCs, entry COCCN1C(=O)CCC(N2C(=O)c3cscc3C2=O)C1=O (stereo not drawn)
Given back: 28
